B1: Myocardin, residues 363 to 406; numbered along this chain, Q8IZQ8 (parent)
chain: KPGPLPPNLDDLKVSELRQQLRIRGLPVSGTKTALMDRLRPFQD

variants of: B1; assay: abundance fitness (aPCA) (normalised: wild type 0, dead -1); higher = more abundant; growth selection in yeast, the domain comes from the species named; settings: Homo sapiens
Decision: abundance fitness >= -0.4 yields y, all other cases yield n.

[
  {
    "primary sequence": "KPGPLPPNLDDLKVSELRQQLRIRGLPVSGTKTALMLRLRPFQD [D37L]",
    "qualitative label": "n"
  },
  {
    "primary sequence": "KPGPLSPNLDDLKVSELRQQLRIRGLPVSGTKTALMDRLRPFQD [P6S]",
    "qualitative label": "y"
  },
  {
    "primary sequence": "KPGPLPPNLDDLKVSELRQQLRLRGLPVSGTKTALMDRLRPFQD [I23L]",
    "qualitative label": "y"
  },
  {
    "primary sequence": "KPGPLPPNLDDLKVSELRQQLRIRGLPVSGMKTALMDRLRPFQD [T31M]",
    "qualitative label": "n"
  },
  {
    "primary sequence": "KPGPLPPNLDDLKVSELRQQLRSRGLPVSGTKTALMDRLRPFQD [I23S]",
    "qualitative label": "y"
  },
  {
    "primary sequence": "KPGPLPPNLDDLKVSELRQQLRIPGLPVSGTKTALMDRLRPFQD [R24P]",
    "qualitative label": "n"
  },
  {
    "primary sequence": "KPGPLPPNLDDLKVSELRQQLRIRGLPVSGTKTALMDRLRPFSD [Q43S]",
    "qualitative label": "y"
  },
  {
    "primary sequence": "KPGMLPPNLDDLKVSELRQQLRIRGLPVSGTKTALMDRLRPFQD [P4M]",
    "qualitative label": "y"
  },
  {
    "primary sequence": "KPGPLPPNGDDLKVSELRQQLRIRGLPVSGTKTALMDRLRPFQD [L9G]",
    "qualitative label": "n"
  },
  {
    "primary sequence": "KPGPLPPNLDDLKVSMLRQQLRIRGLPVSGTKTALMDRLRPFQD [E16M]",
    "qualitative label": "n"
  },
  {
    "primary sequence": "KPGPLPPALDDLKVSELRQQLRIRGLPVSGTKTALMDRLRPFQD [N8A]",
    "qualitative label": "y"
  },
  {
    "primary sequence": "KPGPLPPNLDDLKRSELRQQLRIRGLPVSGTKTALMDRLRPFQD [V14R]",
    "qualitative label": "n"
  },
  {
    "primary sequence": "KPGPLPPNLDDLKVSELRQQLRIRGLPVSGTKTALMDRLRPFWD [Q43W]",
    "qualitative label": "y"
  },
  {
    "primary sequence": "KPGPLPPNLFDLKVSELRQQLRIRGLPVSGTKTALMDRLRPFQD [D10F]",
    "qualitative label": "n"
  },
  {
    "primary sequence": "KPGPLPPNLDDEKVSELRQQLRIRGLPVSGTKTALMDRLRPFQD [L12E]",
    "qualitative label": "y"
  },
  {
    "primary sequence": "KKGPLPPNLDDLKVSELRQQLRIRGLPVSGTKTALMDRLRPFQD [P2K]",
    "qualitative label": "y"
  },
  {
    "primary sequence": "KPGPLPPNLDDLKVSELRQQLRIRGLPWSGTKTALMDRLRPFQD [V28W]",
    "qualitative label": "y"
  },
  {
    "primary sequence": "KPGPLPPNLDDLKVSELRQQLRIRGLPVSGTKTALMDRLCPFQD [R40C]",
    "qualitative label": "n"
  },
  {
    "primary sequence": "KNGPLPPNLDDLKVSELRQQLRIRGLPVSGTKTALMDRLRPFQD [P2N]",
    "qualitative label": "y"
  },
  {
    "primary sequence": "KPGPLPPNLDDHKVSELRQQLRIRGLPVSGTKTALMDRLRPFQD [L12H]",
    "qualitative label": "n"
  },
  {
    "primary sequence": "KPGPLPPNLDDLKVSELRQQLRIRGLPVSGTKTALSDRLRPFQD [M36S]",
    "qualitative label": "n"
  },
  {
    "primary sequence": "KPGPLPPNLDDLKVSELRQQLRIRGLPVSGTKIALMDRLRPFQD [T33I]",
    "qualitative label": "y"
  },
  {
    "primary sequence": "KPGPLPPNLDDLKVSELRQQLRIRGLPLSGTKTALMDRLRPFQD [V28L]",
    "qualitative label": "y"
  },
  {
    "primary sequence": "KPGPLPPNLEDLKVSELRQQLRIRGLPVSGTKTALMDRLRPFQD [D10E]",
    "qualitative label": "y"
  },
  {
    "primary sequence": "KPGPLPPPLDDLKVSELRQQLRIRGLPVSGTKTALMDRLRPFQD [N8P]",
    "qualitative label": "n"
  },
  {
    "primary sequence": "KPGPLPPNLDDLKVSELRQQLRIRGLPVSGTKTALMDRLNPFQD [R40N]",
    "qualitative label": "n"
  },
  {
    "primary sequence": "KPGPLPPNLDDLKVSELRQQLRIRGLPVSGTKTALMDRLRPFQE [D44E]",
    "qualitative label": "y"
  },
  {
    "primary sequence": "KPGPLPPNLDDLKVSELRQQLRIRGLPVSGTKTAWMDRLRPFQD [L35W]",
    "qualitative label": "n"
  },
  {
    "primary sequence": "KPGPLPPNLDDLKVSELRQQLRIRGLPVSGTKTALMNRLRPFQD [D37N]",
    "qualitative label": "y"
  },
  {
    "primary sequence": "KPGPLPPNLDDLKGSELRQQLRIRGLPVSGTKTALMDRLRPFQD [V14G]",
    "qualitative label": "n"
  },
  {
    "primary sequence": "KPGPLPPNLDDLKVSELRQQLRIRGLPVSGTKTFLMDRLRPFQD [A34F]",
    "qualitative label": "n"
  },
  {
    "primary sequence": "KPGPLPPNLDDLKVSELRQQLPIRGLPVSGTKTALMDRLRPFQD [R22P]",
    "qualitative label": "n"
  },
  {
    "primary sequence": "KPGPLPPNLDDLKVSELRVQLRIRGLPVSGTKTALMDRLRPFQD [Q19V]",
    "qualitative label": "n"
  },
  {
    "primary sequence": "KPGPLPPNLDDLKVSELRQQLRIRGLPVSGTKTALMDLLRPFQD [R38L]",
    "qualitative label": "n"
  },
  {
    "primary sequence": "KPGPLPPNLDDLKVSELRQQLRIRGLPVSGTKLALMDRLRPFQD [T33L]",
    "qualitative label": "y"
  },
  {
    "primary sequence": "KPGPLPPNLDDLKVSELRQQLRIRGAPVSGTKTALMDRLRPFQD [L26A]",
    "qualitative label": "n"
  },
  {
    "primary sequence": "KPGPLPPNLDDLKVSELRQQLRIRGLPVSGHKTALMDRLRPFQD [T31H]",
    "qualitative label": "y"
  },
  {
    "primary sequence": "KPGPLPPNLDDLKVSELRQQLWIRGLPVSGTKTALMDRLRPFQD [R22W]",
    "qualitative label": "n"
  },
  {
    "primary sequence": "KPGPLPPNLDDLKVSELRQQLRIRGLPVTGTKTALMDRLRPFQD [S29T]",
    "qualitative label": "y"
  },
  {
    "primary sequence": "KPGPLPPNLDDLKVSELRQQLRIRGLPVSGTKTALMDRLRRFQD [P41R]",
    "qualitative label": "y"
  },
  {
    "primary sequence": "KPGPLPPNLDDLKVSELRQQLRIRGLPVSETKTALMDRLRPFQD [G30E]",
    "qualitative label": "n"
  },
  {
    "primary sequence": "KPGPLPPNLDDLKVSELRQQLRIRGLPVSGTKTALMDELRPFQD [R38E]",
    "qualitative label": "n"
  },
  {
    "primary sequence": "KPGPLPPNLDDLKVSELRQQLSIRGLPVSGTKTALMDRLRPFQD [R22S]",
    "qualitative label": "y"
  },
  {
    "primary sequence": "KPGPLPPNLDDLKVSELRQQLRIRGLPSSGTKTALMDRLRPFQD [V28S]",
    "qualitative label": "y"
  },
  {
    "primary sequence": "KPGPLPPNLDDLKVWELRQQLRIRGLPVSGTKTALMDRLRPFQD [S15W]",
    "qualitative label": "y"
  }
]
